# systemUnderTest: SARS-CoV-2 S on pseudovirions (Wuhan Hu-1 / IL1/2020, last 18 amino acids removed) (SARS-CoV-2, UniProt P0DTC2 14-1273)
# assayComment: cell-based or functional assay
recordedMetric: Mean IC50, pSV neutralization (µg/ml)
Give the value in µg/ml but do not write µg/ml after it.

// known answers, use as guide
binder	recordedMetric	units	numericResult
COV_2165 (antibody, V domains shown, human IgG1) VH: EVQLVESGGGLVQPGGSLRLSCAASGFTFSSYSMNWVRQAPGKGLEWVSYISSSSSTIYYADYVKGRFTISRDNAKNSLYLQMNSLRAEDRAVYYCARVARRDVAPATIAAYFLDYWGQGTLVTVSS VL: EIVLTQSPATLSLSPGERATLSCRASQSLSSYLAWYQQKPGQAPRLLIYDASTRATGIPARFSGSGSGTDFTLTISSLEPEDFAVYYCQQRSTWPRGFTFGPGTKVDIK	Mean IC50, pSV neutralization	µg/ml	0.02
COV_2018 (antibody, V domains shown) VH: QVQLVQSGAEVKKPGSSVKVSCKASGGTSSSYAISWVRQAPGQGLEWIGGIIPIFDTTKYAQKFQGRVTITADESTNTAYMEVSSLRSEDTAVYYCAKVADRVGASTGELDYWGQGTLVTVSS VL: EVVLTQSPATLSLSPGERGTLSCRASQSISNYLAWYQQKPGQAPRLLIYNASNRATGVPARFSGSGSGTDFTLTISSLEPEDFAVYYCQQRSNWPPWTFGQGTKVEIK	Mean IC50, pSV neutralization	µg/ml	0.31
COV_1170 (antibody, V domains shown, human IgG1) VH: QVQLVESGGGVVQPGRSLRLSCAASGFTFSTYAMHWVRQAPGKGLEWVALISYDGSNKYYADSVKGRFTISRDNSKNTLDLQMNSLRAEDTAVYYCARSLGGYRTGFDYWGQGTLVTVSS VL: DIQLTQSPSFLSASVGDRVTITCRASQGISSYLAWYQQKPGKAPKLLIYAASTLQSGVPSRFSGSGSGTEFTLTISSLQPEDFATYYCQQLNSYPPFTFGPGTKVDIKR	Mean IC50, pSV neutralization	µg/ml	0.2
COV_2056 (SEQ ID NO:792/797) (antibody, V domains shown) VH: EVQLVESGGGVVQPGRSLRLSCAASGFTFSIYGMHWVRQAPGKGLEWVALISYDGTNKYYADSVKGRFSISRDDSKNTLYLQMNSLRPEDTAVYYCAKVLMMGDSSGFSLGDAFDIWGQGTMVTVSS VL: DIQMTQSPSSVSASVGDRVTITCRASQGISNWLAWYQQKPGKAPKLLIYAASSLQSGVPSRFSGSVSGTDFTLTISSLQPEDFATYYCQQANSFPLTFGGGTKVDIKR	Mean IC50, pSV neutralization	µg/ml	7.46
COV_2172 (SEQ ID NO:872/877) (antibody, V domains shown) VH: EVQLVESGGGVVQPGRSLRLSCAPSGFTFSTYAMHWVRQAPGKGLEWVAVISYDGSIKYYADSVKGRFTISRDNTMNTVFLQMNSLRAEDTAVYFCAKGGERWELFTSFDYWGQGTQVTVSS VL: QSALTQPRSVSGSPGQSVTISCTGTSSDVGGYNYVSWYQQHPGKAPKLMIYDVSKRPSGVPDRFSGSKSGNTASLTISGLQAEDEADYYCCSYAGSYTFVFGGGTKLTVLG	Mean IC50, pSV neutralization	µg/ml	3.99

Tell me the measured Mean IC50, pSV neutralization of COV_2172 (SEQ ID NO:442/447) (antibody, V domains shown) VH: EVQLVESGGGVVQPGRSLRLSCAPSGFTFSTYAMHWVRQAPGKGLEWVAVISYDGSIKYYADSVKGRFTISRDNTMNTVFLQMNSLRAEDTAVYFCAKGGERWELFTSFDYWGQGTQVTVSS VL: QSALTQPRSVSGSPGQSVTISCTGTSSDVGGYNYVSWYQQHPGKAPKLMIYDVSKRPSGVPDRFSGSKSGNTASLTISGLQAEDEADYYCCSYAGSYTFVFGGGTKLTVL , please.
3.73
